Tested on: A. fumigatus 390 m
Test: Disc-diffusion antifungal assay
Format: cell-based, Aspergillus fumigatus
Conditions: 40 µg/disc, pathogenic clinical isolate
For each entry below, report its Zone of Inhibition value.
Numbers only, in mm.

Methyldecanoyl-MePro-AHMOD-Ser-Aib-Ile-Iva-βAla-Alaol-Glyol [EmiC, emericellipsin C, homologue of emericellipsin A, nonribosomal peptaibol] :: 0

Provide Zone of Inhibition values for the following items, in order.
1. Methyldecanoyl-MePro-AHMOD-Ala-Aib-Ile-Aib-βAla-Alaol-Glyol [EmiB, emericellipsin B, homologue of emericellipsin A, nonribosomal peptaibol]
2. Methyldecanoyl-MePro-AHMOD-Ala-Aib-Ile-Iva-βAla-Aib-Glyol [EmiE, emericellipsin E, homologue of emericellipsin A, nonribosomal peptaibol]
3. Methyldecanoyl-MePro-AHMOD-Ala-Iva-Ile-Iva-βAla-Alaol-Glyol [EmiD, emericellipsin D, homologue of emericellipsin A, nonribosomal peptaibol]
4. Methyldecanoyl-MePro-AHMOD-Ala-Aib-Ile-Iva-βAla-Alaol-Glyol [EmiA, emericellipsin A, nonribosomal lipopeptaibol, major compound of E. alkalina VKPM F1428]

1. 0
2. 0
3. 0
4. 20

====

Tested on: reference and clinical strains of Aspergillus
Test: Disc-diffusion antifungal assay, Aspergillus strains
Format: cell-based
Details: disc-diffusion, reference and clinical strains of Aspergillus
readout kind: antifungal activity against Aspergillus strains (in words)

Methyldecanoyl-MePro-AHMOD-Ala-Aib-Ile-Iva-βAla-Aib-Glyol [EmiE, emericellipsin E, homologue of emericellipsin A, nonribosomal peptaibol] :: totally inactive
Methyldecanoyl-MePro-AHMOD-Ala-Iva-Ile-Iva-βAla-Alaol-Glyol [EmiD, emericellipsin D, homologue of emericellipsin A, nonribosomal peptaibol] :: totally inactive

====

System: A. fumigatus VKM F-37
Experiment: Disc-diffusion antifungal assay
Assay type: cell-based, Aspergillus fumigatus
Conditions: 40 µg/disc
Kindly state Zone of Inhibition for each of the entries shown.
One number for each entry, in mm.

Sample answers from the record:
Methyldecanoyl-MePro-AHMOD-Ala-Aib-Ile-Iva-βAla-Aib-Glyol [EmiE, emericellipsin E, homologue of emericellipsin A, nonribosomal peptaibol] :: 0
Methyldecanoyl-MePro-AHMOD-Ser-Aib-Ile-Iva-βAla-Alaol-Glyol [EmiC, emericellipsin C, homologue of emericellipsin A, nonribosomal peptaibol] :: 0
Methyldecanoyl-MePro-AHMOD-Ala-Aib-Ile-Iva-βAla-Alaol-Glyol [EmiA, emericellipsin A, nonribosomal lipopeptaibol, major compound of E. alkalina VKPM F1428] :: 20
Methyldecanoyl-MePro-AHMOD-Ala-Aib-Ile-Aib-βAla-Alaol-Glyol [EmiB, emericellipsin B, homologue of emericellipsin A, nonribosomal peptaibol] :: 0

Proceed to the following item.
For Methyldecanoyl-MePro-AHMOD-Ala-Iva-Ile-Iva-βAla-Alaol-Glyol [EmiD, emericellipsin D, homologue of emericellipsin A, nonribosomal peptaibol] , what is its reported Zone of Inhibition?
0

====

Tested on: A. niger 1133 m
Assay: Disc-diffusion antifungal assay
Assay type: cell-based, Aspergillus niger
Conditions: 40 µg/disc, pathogenic clinical isolate
readout kind: Zone of Inhibition
Please format your answer as a value with the unit trailing.

Methyldecanoyl-MePro-AHMOD-Ala-Iva-Ile-Iva-βAla-Alaol-Glyol [EmiD, emericellipsin D, homologue of emericellipsin A, nonribosomal peptaibol] :: 0 mm
Methyldecanoyl-MePro-AHMOD-Ala-Aib-Ile-Aib-βAla-Alaol-Glyol [EmiB, emericellipsin B, homologue of emericellipsin A, nonribosomal peptaibol] :: 11 ± 0.170 mm
Methyldecanoyl-MePro-AHMOD-Ala-Aib-Ile-Iva-βAla-Alaol-Glyol [EmiA, emericellipsin A, nonribosomal lipopeptaibol, major compound of E. alkalina VKPM F1428] :: 18 ± 0.27 mm
Methyldecanoyl-MePro-AHMOD-Ala-Aib-Ile-Iva-βAla-Aib-Glyol [EmiE, emericellipsin E, homologue of emericellipsin A, nonribosomal peptaibol] :: 0 mm

Next, consider the following substance.
I'm curious: which Zone of Inhibition was measured for Methyldecanoyl-MePro-AHMOD-Ser-Aib-Ile-Iva-βAla-Alaol-Glyol [EmiC, emericellipsin C, homologue of emericellipsin A, nonribosomal peptaibol] tested on A. niger 1133 m?
0 mm

====

For each record, write down the corresponding Minimal Inhibitory Concentration (MIC).
Tested on: A. fumigatus 390 m
Assay: Broth two-fold microdilution MIC (CLSI)
Type: cell-based, Aspergillus fumigatus
Details: A. fumigatus 390 m clinical isolate; RPMI 1640 pH 7.0, 35 °C, 48 h
Give bare numbers, in µg/mL.

Study these solved cases before continuing.
Methyldecanoyl-MePro-AHMOD-Ala-Aib-Ile-Aib-βAla-Alaol-Glyol [EmiB, emericellipsin B, homologue of emericellipsin A, nonribosomal peptaibol] :: 8
Methyldecanoyl-MePro-AHMOD-Ala-Iva-Ile-Iva-βAla-Alaol-Glyol [EmiD, emericellipsin D, homologue of emericellipsin A, nonribosomal peptaibol] :: 32
Methyldecanoyl-MePro-AHMOD-Ser-Aib-Ile-Iva-βAla-Alaol-Glyol [EmiC, emericellipsin C, homologue of emericellipsin A, nonribosomal peptaibol] :: 16

Now consider a different substance.
Find the recorded Minimal Inhibitory Concentration (MIC) belonging to Methyldecanoyl-MePro-AHMOD-Ala-Aib-Ile-Iva-βAla-Alaol-Glyol [EmiA, emericellipsin A, nonribosomal lipopeptaibol, major compound of E. alkalina VKPM F1428] and report it.
2
